- experimental_target: c-Myc protein (Homo sapiens)
- Construct: endogenous in cells; host or cells: HL60 cells
- Sequence (P01106 whole entry): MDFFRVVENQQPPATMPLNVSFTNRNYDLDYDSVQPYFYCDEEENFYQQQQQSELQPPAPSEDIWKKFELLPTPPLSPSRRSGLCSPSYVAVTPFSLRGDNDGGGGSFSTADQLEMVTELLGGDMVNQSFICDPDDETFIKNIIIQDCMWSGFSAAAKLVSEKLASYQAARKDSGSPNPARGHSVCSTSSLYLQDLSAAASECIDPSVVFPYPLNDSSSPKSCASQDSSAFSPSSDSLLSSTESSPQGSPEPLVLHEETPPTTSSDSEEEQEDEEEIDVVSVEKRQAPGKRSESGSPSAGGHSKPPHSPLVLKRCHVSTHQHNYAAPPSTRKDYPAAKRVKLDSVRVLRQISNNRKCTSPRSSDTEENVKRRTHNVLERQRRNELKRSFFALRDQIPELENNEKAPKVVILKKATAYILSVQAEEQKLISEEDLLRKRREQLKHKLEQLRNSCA
- protocol_summary: Ability of compounds to degrade c-Myc protein in HL60 cells (ELISA)
- Type: cell-based
- protocol_conditions: HL-60, 1 μM compound, 24 h, read-out: HL60 cells Protein degradation rate (1 μM)
Measured inhibition at 1 µM, listed per entry for reference.

Field: example entries. Status: answers known.
{"columns": ["compound", "experimental_target", "inhibition at 1 µM"],
 "data": [
  ["O=C(Cn1c2ccccc2c2cccnc21)NCc1ccc(CC(=O)Nc2ccc3c(c2)CN(C2CCC(=O)NC2=O)C3=O)cc1 (stereo not drawn)", "c-Myc protein (Homo sapiens)", "60 to 90%"],
  ["O=C(Cc1cccc2ccc(F)cc12)NCc1ccc(CNC(=O)c2ccc3c(c2)C(=O)N(C2CCC(=O)NC2=O)C3=O)cc1 (stereo not drawn)", "c-Myc protein (Homo sapiens)", "30 to 60%"],
  ["CN(CCn1c2ccccc2c2cccnc21)Cc1ccc(C2(NC(=O)c3ccc4c(c3)C(=O)N(C3CCC(=O)NC3=O)C4=O)CC2)cc1 (stereo not drawn)", "c-Myc protein (Homo sapiens)", "60 to 90%"]
]}

Record O=C(Cc1cccc2ccccc12)NCc1ccc(C(=O)NCc2ccc3c(c2)C(=O)N(C2CCC(=O)NC2=O)C3=O)cc1 (stereo not drawn) , field inhibition at 1 µM: 60 to 90%

// provenance: patent US20240350643A1
